# test: Plasma PK of Example B, oral bioavailability and clearance in male Balb/c mice
# Assay type: in vivo, mouse
# setup-conditions: IV, 3 mg/kg; male Balb/c mouse plasma; Mesylate Salt
measured-endpoint: Cmax

Data request: Find the recorded Cmax belonging to [O-][S+]1CCN(Cc2cnc3oc4c(N5CCOCC5)nc(-c5cccc6[nH]ccc56)nc4c3c2)CC1 and report it.
Data returned: 5320 ng/mL

---

# test: Plasma PK of Example B, oral bioavailability and clearance in male Balb/c mice
# Assay type: in vivo, mouse
# setup-conditions: IV, 3 mg/kg; male Balb/c mouse plasma; Mesylate Salt
measured-endpoint: clearance (mL/min/kg)
Dear colleague, please return just the value in mL/min/kg, with no unit written.

Data request: Find the recorded clearance belonging to [O-][S+]1CCN(Cc2cnc3oc4c(N5CCOCC5)nc(-c5cccc6[nH]ccc56)nc4c3c2)CC1 and report it.
Data returned: 17

---

# assay-target: UniProt:P48736
# Sequence (P48736 whole entry): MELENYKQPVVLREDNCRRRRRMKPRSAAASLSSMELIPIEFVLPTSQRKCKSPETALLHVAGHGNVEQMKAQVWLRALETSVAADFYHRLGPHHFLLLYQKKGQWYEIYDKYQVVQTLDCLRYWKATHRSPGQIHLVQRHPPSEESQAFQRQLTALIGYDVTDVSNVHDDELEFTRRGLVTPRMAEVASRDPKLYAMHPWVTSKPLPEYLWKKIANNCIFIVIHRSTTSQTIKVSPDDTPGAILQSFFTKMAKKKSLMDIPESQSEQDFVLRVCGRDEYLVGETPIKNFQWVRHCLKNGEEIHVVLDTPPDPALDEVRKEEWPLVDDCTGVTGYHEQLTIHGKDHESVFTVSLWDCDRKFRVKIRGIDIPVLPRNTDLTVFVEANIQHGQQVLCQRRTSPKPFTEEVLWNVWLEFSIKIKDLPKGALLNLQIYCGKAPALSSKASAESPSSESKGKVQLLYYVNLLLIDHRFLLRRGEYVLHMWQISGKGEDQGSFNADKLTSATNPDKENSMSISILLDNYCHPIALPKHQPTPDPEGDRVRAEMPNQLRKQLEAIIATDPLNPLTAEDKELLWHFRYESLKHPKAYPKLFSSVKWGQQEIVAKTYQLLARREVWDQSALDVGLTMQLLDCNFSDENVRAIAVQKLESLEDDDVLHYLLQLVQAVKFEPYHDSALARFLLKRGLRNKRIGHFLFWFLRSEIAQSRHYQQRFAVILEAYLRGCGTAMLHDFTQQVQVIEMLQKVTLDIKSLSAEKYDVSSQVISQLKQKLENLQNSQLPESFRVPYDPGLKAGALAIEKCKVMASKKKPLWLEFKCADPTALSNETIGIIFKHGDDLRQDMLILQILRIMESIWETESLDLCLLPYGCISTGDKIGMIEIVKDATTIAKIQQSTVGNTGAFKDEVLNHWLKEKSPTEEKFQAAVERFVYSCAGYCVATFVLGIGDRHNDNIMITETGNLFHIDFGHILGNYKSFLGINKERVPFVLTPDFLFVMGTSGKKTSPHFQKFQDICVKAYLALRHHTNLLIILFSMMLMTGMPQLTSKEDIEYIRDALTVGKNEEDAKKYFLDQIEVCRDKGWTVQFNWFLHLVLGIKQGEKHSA
pIC50: −log10 of the molar value.
measured-endpoint: pIC50

Data request: Find the recorded pIC50 belonging to c1cc(-c2nc(N3CCOCC3)c3oc4ncc(CN5CCSCC5)cc4c3n2)c2cc[nH]c2c1 [Example AF] and report it.
Data returned: 6.00 to 6.30

---

# assay-target: UniProt P42338
# Sequence (P42338 whole entry): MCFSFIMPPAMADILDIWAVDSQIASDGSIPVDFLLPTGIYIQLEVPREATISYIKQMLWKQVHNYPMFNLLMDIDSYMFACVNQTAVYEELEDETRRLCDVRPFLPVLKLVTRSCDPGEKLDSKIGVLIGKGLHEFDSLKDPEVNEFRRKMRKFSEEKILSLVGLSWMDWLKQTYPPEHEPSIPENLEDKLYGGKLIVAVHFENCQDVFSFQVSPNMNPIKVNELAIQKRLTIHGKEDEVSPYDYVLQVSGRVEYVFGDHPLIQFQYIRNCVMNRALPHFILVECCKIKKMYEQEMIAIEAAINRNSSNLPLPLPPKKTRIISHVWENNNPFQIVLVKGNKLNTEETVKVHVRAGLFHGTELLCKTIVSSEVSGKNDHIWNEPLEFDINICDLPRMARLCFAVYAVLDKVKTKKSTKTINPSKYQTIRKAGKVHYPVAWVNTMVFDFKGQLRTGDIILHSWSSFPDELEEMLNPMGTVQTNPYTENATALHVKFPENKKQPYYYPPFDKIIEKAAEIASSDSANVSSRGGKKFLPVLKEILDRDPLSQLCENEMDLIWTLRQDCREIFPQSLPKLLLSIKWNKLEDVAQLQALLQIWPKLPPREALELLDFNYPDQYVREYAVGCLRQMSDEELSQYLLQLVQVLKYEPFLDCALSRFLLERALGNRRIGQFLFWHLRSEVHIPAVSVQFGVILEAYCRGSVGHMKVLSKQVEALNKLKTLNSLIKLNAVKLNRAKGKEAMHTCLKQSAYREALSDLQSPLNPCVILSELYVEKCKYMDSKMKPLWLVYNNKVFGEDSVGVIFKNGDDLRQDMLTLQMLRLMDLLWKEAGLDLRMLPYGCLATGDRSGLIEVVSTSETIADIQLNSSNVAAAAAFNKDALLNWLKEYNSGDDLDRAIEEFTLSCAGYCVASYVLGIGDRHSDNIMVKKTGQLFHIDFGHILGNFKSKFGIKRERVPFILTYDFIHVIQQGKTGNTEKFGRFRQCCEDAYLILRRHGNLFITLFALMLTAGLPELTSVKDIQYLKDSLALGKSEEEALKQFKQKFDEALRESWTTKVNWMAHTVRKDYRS
# Sequence (P27986 whole entry partner): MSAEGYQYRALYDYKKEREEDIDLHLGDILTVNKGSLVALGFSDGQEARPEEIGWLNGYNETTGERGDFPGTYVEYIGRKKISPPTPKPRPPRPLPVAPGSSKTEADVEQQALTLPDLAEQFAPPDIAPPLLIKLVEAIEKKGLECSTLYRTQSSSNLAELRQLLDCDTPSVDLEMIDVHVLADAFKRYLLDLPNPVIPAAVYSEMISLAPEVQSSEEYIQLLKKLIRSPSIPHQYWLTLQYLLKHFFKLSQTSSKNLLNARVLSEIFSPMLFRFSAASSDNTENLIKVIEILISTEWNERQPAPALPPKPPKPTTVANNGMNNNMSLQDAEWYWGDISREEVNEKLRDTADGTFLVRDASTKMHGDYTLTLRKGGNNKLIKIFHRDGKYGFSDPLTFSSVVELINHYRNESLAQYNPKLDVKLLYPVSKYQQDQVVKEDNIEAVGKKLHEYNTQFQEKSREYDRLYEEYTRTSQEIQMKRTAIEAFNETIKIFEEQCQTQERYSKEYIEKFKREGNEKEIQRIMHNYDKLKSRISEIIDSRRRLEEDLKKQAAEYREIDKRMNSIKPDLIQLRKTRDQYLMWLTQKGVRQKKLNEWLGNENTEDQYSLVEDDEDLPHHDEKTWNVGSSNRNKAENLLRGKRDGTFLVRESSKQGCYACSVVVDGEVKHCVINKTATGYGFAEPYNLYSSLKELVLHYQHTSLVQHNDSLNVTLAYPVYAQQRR
pKi: −log10 of the molar value.
Overview of reported pKi across a group of compounds:

Some compounds with recorded pKi:
>  <smiles-string>
C[C@@H](c1cnc2oc3c(N4CCOCC4)nc(-c4cccc5[nH]ccc45)nc3c2c1)N1CCS(=O)(=O)CC1

>  <assay-target>
UniProt P42338

>  <pKi>
≥ 6.30

$$$$
>  <smiles-string>
N=S1(=O)CCN(Cc2cnc3oc4c(N5CCOCC5)nc(-c5cccc6[nH]ccc56)nc4c3c2)CC1

>  <assay-target>
UniProt P42338

>  <pKi>
≥ 6.30

$$$$
>  <smiles-string>
Cc1ccc2c(c1-c1nc(N3CCOCC3)c3oc4ncc(CN5CC[S+]([O-])CC5)cc4c3n1)CCN2

>  <assay-target>
UniProt P42338

>  <pKi>
5.00 to 6.00

$$$$

Next compound, please.
Data request: Find the recorded pKi belonging to Cc1ccc2[nH]ccc2c1-c1nc(N2CCOCC2)c2oc3ncc(CN4CC[S+]([O-])CC4)cc3c2n1 and report it.
Data returned: ≥ 6.30

---

# test: Plasma PK of Example B, oral bioavailability and clearance in male Balb/c mice
# Format: in vivo, mouse
# setup-conditions: PO, 10 mg/kg; male Balb/c mouse plasma; Mesylate Salt
measured-endpoint: Tmax (min)
Dear colleague, please return just the value in min, with no unit written.

Data request: Find the recorded Tmax belonging to [O-][S+]1CCN(Cc2cnc3oc4c(N5CCOCC5)nc(-c5cccc6[nH]ccc56)nc4c3c2)CC1 and report it.
Data returned: 30

---

# test: Plasma PK of compound K of WO 2011/021038 in male Balb/c mice
# Type: in vivo, mouse
# setup-conditions: IV, 3 mg/kg; male Balb/c mouse plasma
measured-endpoint: half-life (h)
Dear colleague, please return just the value in h, with no unit written.

Data request: Find the recorded half-life belonging to c1cc(-c2nc(N3CCOCC3)c3oc4ncc(CN5CCOCC5)cc4c3n2)c2cc[nH]c2c1 and report it.
Data returned: 1.33

---

# test: Plasma PK of compound K of WO 2011/021038 in male Balb/c mice
# Assay type: in vivo, mouse
# setup-conditions: PO, 10 mg/kg; male Balb/c mouse plasma
measured-endpoint: AUC(0-t) (ng·h/mL)
Dear colleague, please return just the value in ng·h/mL, with no unit written.

Data request: Find the recorded AUC(0-t) belonging to c1cc(-c2nc(N3CCOCC3)c3oc4ncc(CN5CCOCC5)cc4c3n2)c2cc[nH]c2c1 [compound K in WO 2011/021038] and report it.
Data returned: 4890
